B1: TPR t1 (parent)
chain: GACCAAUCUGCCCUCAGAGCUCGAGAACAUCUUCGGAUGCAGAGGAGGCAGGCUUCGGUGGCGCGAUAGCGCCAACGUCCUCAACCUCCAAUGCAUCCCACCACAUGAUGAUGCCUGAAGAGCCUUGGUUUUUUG

variants of: B1; test: polymerase ribozyme fitness, log enrichment relative to wild type (log ratio); higher = more active; in vitro selection for triplet polymerase activity
observable: polymerase ribozyme fitness (log ratio)
Give the figure only, with no unit attached.

For orientation, consider the following solved cases.
GACCAAUCUGCCCUCAUAGCUCGAGAACAUCUUCGGAUGCAGAGGAUGCAGGCUUCGGUGGCGCGAUAGCGCCAACGUCCUCAACCUCCAAUGCAUCCCACCACAUGAUGAUGCCUGAAGAGCCUUGGUUUUUUG    -5.05
GACCAAUCUGCCCUCAGAGCUCGAGAACAUCUUCGGAUGCAGAGGAGGCAGGCUUCGGUGGCGCGUUAGCGCCAACGUCCUCAACCUCCAAUGCAUCCCACCACAUGAUGAUGCCUGAAGAGCCUUGGUGUUUUG    -1.71
GACCAAUCUGGCCUCAGAGCUCGAGAACAUCUUCGGAUGAAGAGGAGGCAGGCUUCGGUGGCGCGAUAGCGCCAACGUCCUCAACCUCCAAUGCAUCCCACCACAUGAUGAUGCCUGAAGAACCUUUGUUUUUUG    -1.57
GACCAAUCUGCCCUUAGAGCUCGAGAACAUCUUCGGAUGCAGAGGAGGCAGGCUUCGGUGGCGCGAUAGCGCCAACGUCCGGAACCUCCAAUGCAUCCCACCACAUGAUGAUGCCUGAGUAGACUUGGUUUUUUG    -0.519
GACCAAUCUGCCCUCAGCGCUCGAGAACAUCUUCGGAUGCAGAGGAGGCAGGCUUGGGUGGCGCGAUAGCGUCAACGUCCUCAACCUCCAAUGCAUCCCACCACAUGAUGAUGCCUGAAGAGCCUUGGUUUUUUG    -1.24
GACCAAUAUGCCCUCAGAGCUCGAGAACAUCUUCGGAUGCAGAGGAGGCAGGCUUCGGUGGUGCGAUAGCGCCAACGUCCUCAACCUCCAAUGCAUCCCACCACAUGAUGAUGCCUGAAGAGCCUUGGUUUUUUG    0.19

Exercise: Give recorded polymerase ribozyme fitness (log ratio). "GACCAAUCUGCCCUCAGAGCUCGAGAACAUCUUCGGAUGCAGAGGAGGCAGGCUUCGGUGGCGCGAUAUCGCCAACGUCCUCAACCUACUAUGCAUCCCACCACAUGAUGAUGCCUGAAGAGCCUUGGUUUUUUG"
Solution: 0.178

Exercise: Give recorded polymerase ribozyme fitness (log ratio). "GAACAAUAUGCGCUCAGAGCUCGAGAACAUCUUCGGAUGCAGAGGAGGCAGGCUUCGGUAGCGCGAUAGCGCCAACGUCCUCAACCUCCAAAGCAUCCCACCACAUGAUGAUGCCUGAAGAGCAUUGGUUUUUUG"
Solution: -2.58

Exercise: Give recorded polymerase ribozyme fitness (log ratio). "GACCAAUCUGCACUCAGAGCUCGAGAACAUCUUCGGAUGCAGAGGAGGCAGGCUUCGGUGGCGCGAUAGCGCCAACGUCCUCAACCUCGAAUACAUCCCACCACAUGAUGAUGCCUGAAGAGCCUUGGUUUUUUG"
Solution: -2.86

Exercise: Give recorded polymerase ribozyme fitness (log ratio). "GACCAAUCUGCCCUCAGAGCUCGAGAACAUCUUAGGAUGCAGAGGAGUCAGGCUUCGGUGGCGCGAUAGCGCCAACGUCCUCAACCUCCAAUGCAUCCCACCACAUGAUGAUGCCUGAAGUGCCUUGGUUUUUUG"
Solution: -1.3

Exercise: Give recorded polymerase ribozyme fitness (log ratio). "GACCAAUCUGUCCUCAGAGCUCGAGAACAUCUUCGGAUGCAAAGGAGGCAGGCUUCGGUGGCGCGAUAGCGCCAACGUCCUCAACCUCCAAUGCAACCCACCACAUGAUGAUGCCUGAAGAGCCUUGGUUUUUUG"
Solution: -3.35
